// values below are reported CC50
# Tested on: Calu-3 cells
# measurement-description: PrestoBlue cytotoxicity assay
# Type: cell-based, human
# condition-notes: Calu-3, 48 h incubation

Consider CC(=O)O[C@H]1CC[C@]2(C)[C@H]3CC[C@]4(C)Oc5cc(C)oc(=O)c5C[C@H]4[C@]3(C)CC[C@H]2C1(C)C . Its measured CC50 is > 100 µM

Entry C=C1C[C@@]23CC[C@H]4[C@@](C)(CCC[C@@]4(C)C(=O)O)[C@@H]2CC[C@@H]1C3 — recorded CC50 = > 100 µM

Briefly, CC50 measured for C[C@@H]1CC[C@@]2(OC1)O[C@H]1C[C@H]3[C@@H]4CC[C@@H]5CC(=O)CC[C@]5(C)[C@H]4CC(=O)[C@]3(C)[C@@]1(O)[C@@H]2C [asparacemosone B] : > 100 µM
